Molecular target: Torsin-1A-interacting protein 2 (Homo sapiens)
Assay: LULL1 binders on small-molecule microarray, primary screen, cell lysate, human LULL1 lysate, 635/667 nm fluorescence (AID 1092);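 further: probe is lysate of COS7 cells overexpressing human LULL1; score merges per-feature 667 nm fluorescence with signal-to-noise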
Conditions: hLULL1 lysate binding, 635 nm fluorescence, higher = more signal
RECORDED ENDPOINT: composite z-score
No unit in the answer, please; the number alone is enough.

# lookup: composite z-score of `CCCC=C(CCC)[C@@H](NS(=O)(=O)c1cccc2cccnc12)c1ccc(-c2ccccc2)cc1`
3.61

# lookup: composite z-score of `CCCNC(=O)[C@@]1(Sc2ccc(C)cc2)CC(=O)N(C(C)C)[C@@H]1c1ccc(CO)cc1I`
2.73

# lookup: composite z-score of `Cc1c(NC(=O)/C(C#N)=C/c2ccccc2Cl)c(=O)n(-c2ccccc2)n1C`
3.03

# lookup: composite z-score of COc1cc(NN2C(C(O)c3ccccc3)C=CC3C(=O)N(C)C(=O)C32)cc(OC)c1OC (configuration not stated)
2.98

# lookup: composite z-score of CC(C)CCC[C@@H](C)[C@H]1CC[C@@]2(C)C3=C(CC[C@]12C)[C@@]1(C)CC[C@H](OC(=O)c2ccccc2)C(C)(C)C1CC3 (some centres not stated)
-0.11

# lookup: composite z-score of CN1C(=O)C2C=CC(C(O)c3cc(C(F)(F)F)cc(C(F)(F)F)c3)N(NC(=O)OC(C)(C)C)C2C1=O (configuration not stated)
3.61

# lookup: composite z-score of `CN(C)CCCC[C@@H]1NC(=O)[C@@H]2C[C@H](C(=O)O)[C@H](c3cccc(OCCO)c3)N2C1=O`
1.31

# lookup: composite z-score of `[N-]=[N+]=Nc1ccccc1C[C@]1(C(=O)O)N=C(c2ccc(OCCCO)cc2)O[C@H]1c1ccccc1`
3.11

# lookup: composite z-score of `Cc1cccc([C@H]2C[C@H]3C(Br)=C[C@@H]2C(=O)[C@]32CO2)c1`
-0.831

# lookup: composite z-score of `CC(C)C(=C=CC[C@H](O)c1cccc(OCCO)c1)CCO`
0.228

# lookup: composite z-score of CCOC(=O)C1=CCC(c2ccco2)N(S(=O)(=O)c2ccc(C)cc2)C1 (configuration not stated)
2.62

# lookup: composite z-score of `CC(C)(C)OC(=O)CC[C@]12N=C(c3ccc(OCCCO)cc3)O[C@H]1c1ccccc1N(Cc1ccccc1)C2=O`
2.72

# lookup: composite z-score of `COc1ccc(C#Cc2ccc3c(c2)[C@]2(C(=O)N3)[C@H](C(=O)N3CCCCCCC3)[C@H]3C(=O)O[C@H](c4ccccc4)[C@H](c4ccccc4)N3[C@@H]2c2ccc(O)cc2)cc1`
3.12

# lookup: composite z-score of `COCCOC(=O)N1C(=O)[C@@]2(c3ccccc31)[C@H](c1ccccc1OCCO)N1[C@H](c3ccccc3)[C@H](c3ccccc3)OC(=O)[C@H]1[C@@H]2C(=O)N1CCCCCCC1`
4.47

# lookup: composite z-score of `COCCCNC(=O)[C@@]1(c2ccc([N+](=O)[O-])cc2)CC(=O)N(C(C)C)[C@@H]1c1ccc(CO)cc1`
0.15

# lookup: composite z-score of `Cc1nc2cc(Br)ccc2c(=O)n1Cc1cccc(O)c1`
1.16

# lookup: composite z-score of `COc1cccc(/C=C(\C#N)C(=O)Nc2c(C)n(C)n(-c3ccccc3)c2=O)c1`
2.66
